target of assay: UniProt P54578
Sequence (P54578 whole entry): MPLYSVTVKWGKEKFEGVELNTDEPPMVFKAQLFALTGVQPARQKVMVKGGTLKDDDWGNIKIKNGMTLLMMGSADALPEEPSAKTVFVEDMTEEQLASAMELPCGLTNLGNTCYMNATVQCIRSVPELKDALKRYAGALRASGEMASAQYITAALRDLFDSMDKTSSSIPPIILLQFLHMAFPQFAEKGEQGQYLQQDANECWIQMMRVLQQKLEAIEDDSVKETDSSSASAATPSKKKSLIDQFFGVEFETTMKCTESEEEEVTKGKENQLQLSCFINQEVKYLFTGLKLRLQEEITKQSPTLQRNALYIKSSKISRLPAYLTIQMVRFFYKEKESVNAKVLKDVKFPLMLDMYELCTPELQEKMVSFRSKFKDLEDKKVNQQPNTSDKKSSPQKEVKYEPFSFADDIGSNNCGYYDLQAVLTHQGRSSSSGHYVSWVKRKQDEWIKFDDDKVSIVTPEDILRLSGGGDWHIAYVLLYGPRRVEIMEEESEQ
Sequence (Q13200 whole entry partner): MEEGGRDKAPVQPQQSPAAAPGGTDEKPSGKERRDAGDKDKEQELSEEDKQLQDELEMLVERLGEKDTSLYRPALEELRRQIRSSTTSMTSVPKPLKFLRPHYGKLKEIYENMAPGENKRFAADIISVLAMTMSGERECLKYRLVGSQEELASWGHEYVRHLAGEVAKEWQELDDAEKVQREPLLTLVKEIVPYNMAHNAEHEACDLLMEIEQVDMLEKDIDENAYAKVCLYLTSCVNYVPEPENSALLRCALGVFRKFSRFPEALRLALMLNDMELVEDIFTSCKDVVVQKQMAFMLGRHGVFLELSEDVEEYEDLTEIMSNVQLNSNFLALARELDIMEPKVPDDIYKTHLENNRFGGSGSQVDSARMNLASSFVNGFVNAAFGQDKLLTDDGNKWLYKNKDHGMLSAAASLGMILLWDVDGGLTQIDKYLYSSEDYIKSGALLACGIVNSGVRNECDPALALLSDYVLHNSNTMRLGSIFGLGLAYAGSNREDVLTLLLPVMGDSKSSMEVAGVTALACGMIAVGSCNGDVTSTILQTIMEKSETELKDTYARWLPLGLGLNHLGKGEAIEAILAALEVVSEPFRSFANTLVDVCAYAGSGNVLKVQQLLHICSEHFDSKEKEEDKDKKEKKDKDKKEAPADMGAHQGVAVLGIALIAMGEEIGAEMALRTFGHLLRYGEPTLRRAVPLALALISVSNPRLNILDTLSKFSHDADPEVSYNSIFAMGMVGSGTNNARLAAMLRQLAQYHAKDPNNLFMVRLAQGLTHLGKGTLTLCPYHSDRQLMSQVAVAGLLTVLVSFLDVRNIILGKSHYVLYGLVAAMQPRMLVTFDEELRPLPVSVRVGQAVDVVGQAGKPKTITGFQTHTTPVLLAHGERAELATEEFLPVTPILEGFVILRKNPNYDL
Sequence (P35998 whole entry partner): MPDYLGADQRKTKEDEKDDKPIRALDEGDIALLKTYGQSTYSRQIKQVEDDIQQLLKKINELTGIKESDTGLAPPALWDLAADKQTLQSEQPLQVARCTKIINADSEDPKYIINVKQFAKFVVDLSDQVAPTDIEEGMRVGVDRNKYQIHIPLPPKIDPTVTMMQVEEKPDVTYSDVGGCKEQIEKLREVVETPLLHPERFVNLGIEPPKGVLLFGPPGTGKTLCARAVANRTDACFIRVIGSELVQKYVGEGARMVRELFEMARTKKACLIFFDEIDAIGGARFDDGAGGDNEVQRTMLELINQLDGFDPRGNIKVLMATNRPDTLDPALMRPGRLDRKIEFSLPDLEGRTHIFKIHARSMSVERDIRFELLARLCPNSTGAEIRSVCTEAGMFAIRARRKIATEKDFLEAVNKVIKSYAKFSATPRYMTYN
assay protocol: USP14 inhibition assay
Assay type: biochemical
test conditions: average value from three experimental determinations; reported as potency bands; read-out: IC50 (USP14 inhibition)
pIC50: −log10 of the molar value.
recorded endpoint: pIC50

Param item: CN(C)C(=O)Cc1nc(N2CCC2)c2c3c(sc2n1)CCCC3 ; param system: UniProt P54578; output pIC50: < 5.30

Param item: CN(c1nc(CC(=O)N2CCC(O)C2)nc2sc3c(c12)CCCC3)C1CC1 (centres unmarked) ; param system: UniProt P54578; output pIC50: > 6.00

Param item: CN(c1nc(CC(=O)N2CC[C@H](C(C)(C)O)C2)nc2sc3c(c12)CCCC3)C1CC1 ; param system: UniProt P54578; output pIC50: > 6.00

Param item: CN(c1nc(CC(=O)N2CCCC2C(N)=O)nc2sc3c(c12)CCCC3)C1CC1 (centres unmarked) ; param system: UniProt P54578; output pIC50: > 6.00

Param item: CN1CCN(C(=O)Cc2nc(N(C)C3CC3)c3c4c(sc3n2)CCCC4)CC1 ; param system: UniProt P54578; output pIC50: > 6.00

Param item: CN(c1nc(CC(=O)NCCc2ccccn2)nc2sc3c(c12)CCCC3)C1CC1 ; param system: UniProt P54578; output pIC50: 5.30 to 6.00

Param item: CN(c1nc(CC(=O)N2CC[C@@H](C(C)(C)O)C2)nc2sc3c(c12)CCCC3)C1CC1 ; param system: UniProt P54578; output pIC50: > 6.00

Param item: CN(c1nc(CC(=O)NCCC(C)(C)O)nc2sc3c(c12)CCCC3)C1CC1 ; param system: UniProt P54578; output pIC50: 5.30 to 6.00
